target: JNK1 (Homo sapiens, UniProt P45983); construct: hexa-histidine; made in house; host or cells: E. coli (Rosetta pLysS); assay: Fluorescence polarization (FP) competitive protein-peptide binding assay, JNK1; details: FP competition titration of unlabeled synthetic peptide against 50 nM fluorescently labeled pep JIP3, MAPK at ~60–80% complex formation, 384-well, triplicates, average FP signal fitted; limit of quantitation ~100 μM
Sequence (P45983 whole entry): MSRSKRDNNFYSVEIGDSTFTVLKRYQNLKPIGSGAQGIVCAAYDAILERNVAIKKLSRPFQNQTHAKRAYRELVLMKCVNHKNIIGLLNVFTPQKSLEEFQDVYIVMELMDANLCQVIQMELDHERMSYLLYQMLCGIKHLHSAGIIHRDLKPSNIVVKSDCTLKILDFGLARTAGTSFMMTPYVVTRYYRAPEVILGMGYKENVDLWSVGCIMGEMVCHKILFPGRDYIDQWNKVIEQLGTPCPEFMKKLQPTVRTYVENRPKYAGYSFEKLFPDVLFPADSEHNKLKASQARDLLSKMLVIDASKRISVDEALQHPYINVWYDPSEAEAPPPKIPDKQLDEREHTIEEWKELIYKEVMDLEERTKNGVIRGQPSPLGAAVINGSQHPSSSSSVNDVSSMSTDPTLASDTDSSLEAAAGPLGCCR
Ends that are not written are not given here.
readout.label: Kd (µM)

>>> val("KPQRKSRPPPLDLRNLS [GAB3+]")
13.2

====

Target: ERK2 (Homo sapiens)
Construct: hexa-histidine; made in house; host or cells: E. coli (Rosetta pLysS)
Sequence (P28482 whole entry): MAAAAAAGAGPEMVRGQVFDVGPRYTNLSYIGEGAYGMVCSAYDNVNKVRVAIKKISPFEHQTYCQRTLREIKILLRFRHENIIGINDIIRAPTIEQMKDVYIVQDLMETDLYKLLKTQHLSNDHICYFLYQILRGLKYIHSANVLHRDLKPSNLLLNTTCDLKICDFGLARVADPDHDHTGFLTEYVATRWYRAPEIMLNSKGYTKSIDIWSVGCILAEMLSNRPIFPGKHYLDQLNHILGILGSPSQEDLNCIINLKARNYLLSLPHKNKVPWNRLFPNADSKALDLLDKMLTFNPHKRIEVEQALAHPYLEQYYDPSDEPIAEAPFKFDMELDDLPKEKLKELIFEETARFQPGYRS
Assay: Fluorescence polarization (FP) competitive protein-peptide binding assay, ERK2
Settings: FP competition titration of unlabeled synthetic peptide against 50 nM fluorescently labeled pepRSK1, MAPK at ~60–80% complex formation, 384-well, triplicates, average FP signal fitted; limit of quantitation ~100 μM
Excerpt: In addition to confirming binding in the MAPK‐docking groove, the dissociation constant (Kd) of unlabeled test peptides could also be calculated. […] For fluorescence polarization (FP)‐based binding affinity measurements, known MAPK‐docking groove‐binding peptides were N‐terminally labeled with carboxyfluorescein or carboxytetramethylrhodamine (for ERK2, pepRSK1: […]; for p38α, pepMK2: […] or pepMEF2A: […]; for JNK1, pep JIP3: […]). […]
Ends that are not written are not given here.
readout.label: Kd

>>> val("KPQRKSRPPPLDLRNLS [GAB3+]")
"0.7 µM"
